pIC50: −log10 of the molar value.
Values of pIC50 reported for human mitochondrial RNA polymerase (POLRMT) (Homo sapiens) appear below.

CN1C(=O)C2(CCN(c3cnc(C#N)c(Cl)c3)CC2)c2cc(Br)ccc21
< 4.00

Attention now shifts to the item below.
What reported pIC50 corresponds to N#Cc1ncc(N2CCC3(CC2)C(=O)Nc2ccc(Br)cc23)cc1Cl on human mitochondrial RNA polymerase (POLRMT) (Homo sapiens)?
< 4.00

====

Tested on: RSV-A/A2
MEASUREMENT_DESCRIPTION: microbe, parasite or virus in culture
Type: cell-based
CONDITION_SET: human respiratory syncytial virus; RSV-A/A2, HeLa cells, RT-qPCR
PROPERTY_NAME: EC50
Report the figure along with its unit, number first.

What reported EC50 corresponds to CN1C(=O)C2(CCN(c3cnc(C#N)c(Cl)c3)CC2)c2cc(Br)ccc21 on RSV-A/A2?
1100 nM
